Cited source: PubChem BioAssay (NCATS)

Below, each entry is listed alongside its reported max response.
- Assay Procedure: qHTS Assay for Lipid Storage Modulators (AID 1519)
- Stated Conditions: Drosophila S3 cells, BODIPY lipid droplet/cell ratio, laser cytometry; measured here: cell count channel max response; cells loaded with oleic acid
Records with an inconclusive call do not appear.
Use % as the unit, but write only the number.

Query :: Dear colleague, I am looking for the recorded max response of the following compound: `CCC1(C)CC(=O)NC(=O)C1`
Result :: -7.91

Query :: Quick one: `CCCCCCC(C)(C)c1ccc([C@@H]2C[C@H](O)CC[C@H]2CCCO)c(O)c1`
Result :: 8.54

Query :: Subsequent entry: CC(N)Cc1c[nH]c2ccc(O)cc12 (stereo not drawn)
Result :: 8.43

====

- Tested on: FAB9
- Assay Procedure: qHTS profiling for inhibitors of Plasmodium falciparum proliferation (AID 504749);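 note: 0% = DMSO vehicle and full inhibition = artemisinin control; nearly all actives have a fitted effect of over 60% in size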
- Stated Conditions: P. falciparum in erythrocytes, SYBR Green DNA, 72 h; series mostly up to 28.7 µM
Records with an inconclusive call do not appear. The source made the active and inactive calls. Calls come from the whole dose curve; as a rule, active = well fitted inhibition curve with a large enough effect; inconclusive = small, poorly fitted or top-dose-only effect; inactive = flat fitted curve, though single readings scatter.
Please state which outcome applies, choosing from Yes for active, No for inactive

[[record]]
compound = "Clc1ccc(C2(Cn3cncn3)OCCO2)c(Cl)c1"
category_label = "No"

[[record]]
compound = "C=CCN(C1=NCCN1)c1c(Cl)cccc1Cl"
category_label = "No"

[[record]]
compound = "O=C(CS(=O)C(c1ccccc1)c1ccccc1)NO (centres undefined)"
category_label = "No"

[[record]]
compound = "O=[N+]([O-])c1ccccc1"
category_label = "No"

[[record]]
compound = "CCC1(C)CC(=O)NC(=O)C1"
category_label = "No"


Query :: I would be grateful if you could indicate the recorded call for COC([CH2][Hg])CNC(=O)c1ccccc1OCC(=O)O (centres undefined) .
Result :: No

Query :: Try the compound FC(F)OC(F)(F)C(F)Cl (centres undefined)
Result :: No

Query :: Same question for `C[C@H]1CCC[C@H](O)CCCCCc2cc(O)cc(O)c2C(=O)O1` please.
Result :: No

====

- System: C33A
- Assay Procedure: Primary qHTS to identify gynecologic anti-cancer compounds using libraries of approved drugs and bioactive compounds (AID 1345084); note: nearly all actives have a fitted effect of over 55% in size
- Stated Conditions: Gynecologic cancer cell panel viability, ATPlite luminescence, 48 h; series mostly up to 57.5 µM
- Text: National Center for Advancing Translational Sciences [NCATS] Assay Overview: Chemotherapeutic drug responses vary from cancer to cancer and from patient to patient. […] ATPlite is a luminescence based assay reliant on the conversion of a luciferase substrate to light in the presence of ATP. As a cytotoxic compound will suppress growth and decrease the number of cells, the concentration of ATP will decrease, and less light signal will be detected in the well. […]
Records with an inconclusive call do not appear. The source made the active and inactive calls. Calls follow the shape of the dose curve; as a rule, active = well fitted cell-killing curve with a large enough effect; inconclusive = small, poorly fitted or top-dose-only effect, or effect the other way; inactive = flat fitted curve, though single readings scatter.
Can you answer with just one of these options? TRUE (active), FALSE (inactive)

[[record]]
molecule = "C[C@@H]1C(=O)O[C@H]2[C@H](O)[C@@]34[C@@H]5OC(=O)[C@@]3(O[C@@H]3OC(=O)[C@@H](O)[C@@]34[C@H](C(C)(C)C)[C@H]5O)[C@@]12O"
study_system = "C33A"
category_label = "FALSE"


Query :: Dear all, I need the recorded test outcome for COC(=O)[C@@]12C(=O)C(C)C(=O)[C@]1(C)C(C)=C[C@H]1[C@]3(C=O)CC[C@H](OC(C)=O)C(C)(C)[C@H]3CC[C@@]12C (stereo partly specified) , thank you.
Result :: FALSE

Query :: Now the same for `CCc1c(C(=O)C(N)=O)c2c(OCC(=O)OC)cccc2n1Cc1ccccc1`
Result :: FALSE

Query :: Consider next the molecule `CN1C(=O)c2ccccc2NC(=O)[C@]12O[C@@H]2c1ccccc1` in the same way.
Result :: FALSE

Query :: Similarly, `Clc1ccc(OCC2=NCCN2)cc1Cl` ?
Result :: FALSE

Query :: Lookup CC12CCC3C(CCC4(O)CC(O)CCC34C=O)C1(O)CCC2C1=CC(=O)OC1 (stereo unspecified)
Result :: TRUE
